- Tested on: SR cells
- PROTOCOL TEXT: Half inhibitory concentration (IC50) on ALK-positive SR cell proliferation (CCK-8)
- Assay type: cell-based
- EXPERIMENTAL SETUP: Homo sapiens; SR cells, 72 h drug treatment, CCK-8; read-out: IC50 (nM)/ SR cell line
ENDPOINT NAME: log10 of IC50 (log10 of the value in nM)

>  <MOLECULE>
COc1cc(N2CCC(N3CCN(C(=O)CCCSc4cccc5c4CN(C4CCC(=O)NC4=O)C5=O)CC3)CC2)ccc1Nc1ncc(Cl)c(Nc2ccccc2P(C)(C)=O)n1 (centres unmarked) [SIAIS219069]

>  <ENDPOINT NAME>
log10 of IC50

>  <NUMERIC READOUT>
-0.15

$$$$
>  <MOLECULE>
CCc1cc2c(cc1N1CCC(N3CCN(C(=O)CCCCSc4cccc5c4CN(C4CCC(=O)NC4=O)C5=O)CC3)CC1)C(C)(C)c1[nH]c3cc(C#N)ccc3c1C2=O (centres unmarked) [SIAIS262099]

>  <ENDPOINT NAME>
log10 of IC50

>  <NUMERIC READOUT>
-0.03

$$$$
>  <MOLECULE>
CCc1cc2c(cc1N1CCC(N3CCN(C(=O)CCCCCSc4cccc5c4CN(C4CCC(=O)NC4=O)C5=O)CC3)CC1)C(C)(C)c1[nH]c3cc(C#N)ccc3c1C2=O (centres unmarked) [SIAIS262100]

>  <ENDPOINT NAME>
log10 of IC50

>  <NUMERIC READOUT>
-0.28

$$$$
>  <MOLECULE>
CCc1cc2c(cc1N1CCC(N3CCN(CCCCCCSc4cccc5c4CN(C4CCC(=O)NC4=O)C5=O)CC3)CC1)C(C)(C)c1[nH]c3cc(C#N)ccc3c1C2=O (centres unmarked) [SIAIS262159]

>  <ENDPOINT NAME>
log10 of IC50

>  <NUMERIC READOUT>
0.00

$$$$
>  <MOLECULE>
CCc1cc2c(cc1N1CCC(NC(=O)COCCOCCSc3cccc4c3C(=O)N(C3CCC(=O)NC3=O)C4=O)CC1)C(C)(C)c1[nH]c3cc(C#N)ccc3c1C2=O (centres unmarked) [SIAIS219022]

>  <ENDPOINT NAME>
log10 of IC50

>  <NUMERIC READOUT>
1.91

$$$$
>  <MOLECULE>
COc1cc(N2CCC(NC(=O)CCCCCCSc3cccc4c3CN(C3CCC(=O)NC3=O)C4=O)CC2)ccc1Nc1ncc(Cl)c(Nc2ccccc2P(C)(C)=O)n1 (centres unmarked) [SIAIS219138]

>  <ENDPOINT NAME>
log10 of IC50

>  <NUMERIC READOUT>
-0.54

$$$$
>  <MOLECULE>
COc1cc(N2CCC(N3CCN(C(=O)CSc4cccc5c4CN(C4CCC(=O)NC4=O)C5=O)CC3)CC2)ccc1Nc1ncc(Cl)c(Nc2ccccc2P(C)(C)=O)n1 (centres unmarked) [SIAIS219067]

>  <ENDPOINT NAME>
log10 of IC50

>  <NUMERIC READOUT>
0.38

$$$$
>  <MOLECULE>
CCc1cc2c(cc1N1CCC(N3CCN(CCSc4cccc5c4C(=O)N(C4CCC(=O)NC4=O)C5=O)CC3)CC1)C(C)(C)c1[nH]c3cc(C#N)ccc3c1C2=O (centres unmarked) [SIAIS262158]

>  <ENDPOINT NAME>
log10 of IC50

>  <NUMERIC READOUT>
0.46

$$$$
>  <MOLECULE>
CCc1cc2c(cc1N1CCC(NC(=O)CCCCCSc3cccc4c3C(=O)N(C3CCC(=O)NC3=O)C4=O)CC1)C(C)(C)c1[nH]c3cc(C#N)ccc3c1C2=O (centres unmarked) [SIAIS219014]

>  <ENDPOINT NAME>
log10 of IC50

>  <NUMERIC READOUT>
2.00

$$$$
>  <MOLECULE>
COc1cc(N2CCC(NC(=O)COCCOCCOCCSc3cccc4c3CN(C3CCC(=O)NC3=O)C4=O)CC2)ccc1Nc1ncc(Cl)c(Nc2ccccc2P(C)(C)=O)n1 (centres unmarked) [SIAIS219141]

>  <ENDPOINT NAME>
log10 of IC50

>  <NUMERIC READOUT>
0.70

$$$$
>  <MOLECULE>
CCc1cc2c(cc1N1CCC(N3CCN(C(=O)CCCSc4cccc5c4CN(C4CCC(=O)NC4=O)C5=O)CC3)CC1)C(C)(C)c1[nH]c3cc(C#N)ccc3c1C2=O (centres unmarked) [SIAIS262098]

>  <ENDPOINT NAME>
log10 of IC50

>  <NUMERIC READOUT>
-0.54

$$$$

====

Documented DC50 across a set of compounds
- TESTED TARGET: BCR-ABL (Homo sapiens)
- Sequence (P00519 with tags, fused parts or gaps): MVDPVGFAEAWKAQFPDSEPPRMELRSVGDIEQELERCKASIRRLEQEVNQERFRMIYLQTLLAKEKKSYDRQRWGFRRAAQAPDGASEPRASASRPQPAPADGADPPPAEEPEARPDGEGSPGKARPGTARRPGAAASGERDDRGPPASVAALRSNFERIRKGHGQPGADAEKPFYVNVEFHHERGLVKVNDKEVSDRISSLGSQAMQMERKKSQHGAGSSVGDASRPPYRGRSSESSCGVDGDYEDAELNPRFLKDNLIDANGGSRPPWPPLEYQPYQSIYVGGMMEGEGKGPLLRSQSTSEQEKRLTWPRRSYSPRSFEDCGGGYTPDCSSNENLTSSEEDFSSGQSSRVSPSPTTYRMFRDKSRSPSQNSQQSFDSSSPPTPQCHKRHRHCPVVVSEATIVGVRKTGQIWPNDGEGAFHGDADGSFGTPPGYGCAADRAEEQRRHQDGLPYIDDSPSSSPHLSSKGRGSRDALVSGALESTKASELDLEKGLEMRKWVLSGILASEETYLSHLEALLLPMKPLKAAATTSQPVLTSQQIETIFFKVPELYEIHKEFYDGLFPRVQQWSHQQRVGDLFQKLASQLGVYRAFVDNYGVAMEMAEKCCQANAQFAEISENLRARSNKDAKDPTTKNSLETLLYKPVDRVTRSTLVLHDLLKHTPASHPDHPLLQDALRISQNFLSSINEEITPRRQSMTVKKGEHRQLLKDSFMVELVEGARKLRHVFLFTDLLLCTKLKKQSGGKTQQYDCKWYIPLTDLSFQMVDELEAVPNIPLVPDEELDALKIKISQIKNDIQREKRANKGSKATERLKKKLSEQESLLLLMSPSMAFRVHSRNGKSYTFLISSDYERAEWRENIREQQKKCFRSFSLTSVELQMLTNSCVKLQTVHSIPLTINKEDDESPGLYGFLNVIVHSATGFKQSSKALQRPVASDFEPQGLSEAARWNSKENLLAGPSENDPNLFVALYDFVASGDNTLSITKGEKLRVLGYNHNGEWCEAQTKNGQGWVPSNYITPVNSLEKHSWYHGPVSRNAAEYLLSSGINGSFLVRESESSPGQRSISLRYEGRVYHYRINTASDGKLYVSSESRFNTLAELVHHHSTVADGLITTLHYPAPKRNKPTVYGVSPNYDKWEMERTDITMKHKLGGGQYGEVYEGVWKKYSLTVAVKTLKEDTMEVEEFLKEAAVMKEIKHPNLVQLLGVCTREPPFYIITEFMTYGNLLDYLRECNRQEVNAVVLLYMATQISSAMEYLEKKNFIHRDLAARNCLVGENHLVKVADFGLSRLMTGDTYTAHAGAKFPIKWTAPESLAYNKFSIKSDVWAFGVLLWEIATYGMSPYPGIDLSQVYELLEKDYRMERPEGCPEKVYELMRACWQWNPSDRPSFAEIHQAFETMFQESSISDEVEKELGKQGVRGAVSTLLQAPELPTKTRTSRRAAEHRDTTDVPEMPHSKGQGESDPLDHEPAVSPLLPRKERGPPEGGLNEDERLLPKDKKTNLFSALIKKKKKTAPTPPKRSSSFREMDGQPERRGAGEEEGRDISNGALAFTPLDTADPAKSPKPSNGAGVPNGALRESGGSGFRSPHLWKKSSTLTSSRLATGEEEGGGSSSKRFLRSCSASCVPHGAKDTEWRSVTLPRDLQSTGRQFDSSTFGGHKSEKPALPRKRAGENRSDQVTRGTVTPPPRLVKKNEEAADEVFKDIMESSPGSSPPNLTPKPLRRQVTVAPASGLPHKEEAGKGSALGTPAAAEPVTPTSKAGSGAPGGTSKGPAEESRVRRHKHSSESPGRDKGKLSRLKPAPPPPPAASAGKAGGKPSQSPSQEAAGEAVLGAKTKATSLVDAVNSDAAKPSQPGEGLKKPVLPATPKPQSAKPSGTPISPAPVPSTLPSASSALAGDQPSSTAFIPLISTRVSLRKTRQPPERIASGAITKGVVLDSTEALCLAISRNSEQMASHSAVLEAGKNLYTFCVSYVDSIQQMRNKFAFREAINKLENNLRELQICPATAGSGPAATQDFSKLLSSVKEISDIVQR
- PROTOCOL TEXT: Western-blot half-degradation concentration (DC50) / degradation of BCR-ABL in K562 cells
- EXPERIMENTAL SETUP: read-out: DC50 (nM)/K562 cell line, BCR-ABL protein degradation, 24 hours, Western-blot

>  <COMPOUND>
Cc1nc(Nc2ncc(C(=O)Nc3c(C)cccc3Cl)s2)cc(N2CCN(C(=O)CCSc3cccc4c3C(=O)N(C3CCC(=O)NC3=O)C4=O)CC2)n1 (stereo not drawn)

>  <DC50>
< 1 nM

$$$$
>  <COMPOUND>
Cc1nc(Nc2ncc(C(=O)Nc3c(C)cccc3Cl)s2)cc(N2CCN(CCCSc3cccc4c3C(=O)N(C3CCC(=O)NC3=O)C4=O)CC2)n1 (stereo not drawn)

>  <DC50>
< 3 nM

$$$$
>  <COMPOUND>
Cc1nc(Nc2ncc(C(=O)Nc3c(C)cccc3Cl)s2)cc(N2CCN(C(=O)CCCCSc3cccc4c3CN(C3CCC(=O)NC3=O)C4=O)CC2)n1 (stereo not drawn)

>  <DC50>
< 1 nM

$$$$
>  <COMPOUND>
Cc1nc(Nc2ncc(C(=O)Nc3c(C)cccc3Cl)s2)cc(N2CCN(CCSc3cccc4c3C(=O)N(C3CCC(=O)NC3=O)C4=O)CC2)n1 (stereo not drawn)

>  <DC50>
< 1 nM

$$$$
>  <COMPOUND>
Cc1nc(Nc2ncc(C(=O)Nc3c(C)cccc3Cl)s2)cc(N2CCN(C(=O)CSc3cccc4c3C(=O)N(C3CCC(=O)NC3=O)C4=O)CC2)n1 (stereo not drawn)

>  <DC50>
< 1 nM

$$$$
>  <COMPOUND>
Cc1nc(Nc2ncc(C(=O)Nc3c(C)cccc3Cl)s2)cc(N2CCN(CCSc3cccc4c3CN(C3CCC(=O)NC3=O)C4=O)CC2)n1 (stereo not drawn)

>  <DC50>
< 1 nM

$$$$

====

- System: MDA-MB-231 cells
- PROTOCOL TEXT: Half inhibitory concentration (IC50) on BET-expressing tumor cells, CCK-8, MDA-MB-231
- Assay type: cell-based
- EXPERIMENTAL SETUP: Homo sapiens, 48/72 h, read-out: IC50 (nM)/MDA-MB-231 cell line
- Experimental: BET-expressing cells MV-4-11 cells (human B granulocytic leukemia cells), MDA-MB-231 cells (human breast cancer cells), MDA-MB-468 cells (human breast cancer cells), MDA-MB-453 Cells (human breast cancer cells), MM1S cells (myeloma (immunoglobulin A lambda), B lymphoblasts) and SR cells (human large cell immunoblast lymphoma) were purchased from the American Type Culture Collection (ATCC). The cells used in this present disclosure were cultured in a 37° C. incubator containing 5% CO2. […]

>  <MOLECULE>
Cc1sc2c(c1C)C(c1ccc(Cl)cc1)=N[C@@H](CC(=O)NCCCSc1cccc3c1CN(C1CCC(=O)NC1=O)C3=O)c1nnc(C)n1-2 (stereo partly drawn)

>  <IC50>
> 10000 nM

$$$$
>  <MOLECULE>
Cc1sc2c(c1C)C(c1ccc(Cl)cc1)=N[C@@H](CC(=O)NCCSc1cccc3c1CN(C1CCC(=O)NC1=O)C3=O)c1nnc(C)n1-2 (stereo partly drawn)

>  <IC50>
> 10000 nM

$$$$
>  <MOLECULE>
Cc1sc2c(c1C)C(c1ccc(Cl)cc1)=N[C@@H](CC(=O)NCCCSc1cccc3c1C(=O)N(C1CCC(=O)NC1=O)C3=O)c1nnc(C)n1-2 (stereo partly drawn)

>  <IC50>
> 2820 nM

$$$$

====

- TESTED TARGET: ALK protein (Homo sapiens)
- Sequence (Q9UM73 with tags, fused parts or gaps): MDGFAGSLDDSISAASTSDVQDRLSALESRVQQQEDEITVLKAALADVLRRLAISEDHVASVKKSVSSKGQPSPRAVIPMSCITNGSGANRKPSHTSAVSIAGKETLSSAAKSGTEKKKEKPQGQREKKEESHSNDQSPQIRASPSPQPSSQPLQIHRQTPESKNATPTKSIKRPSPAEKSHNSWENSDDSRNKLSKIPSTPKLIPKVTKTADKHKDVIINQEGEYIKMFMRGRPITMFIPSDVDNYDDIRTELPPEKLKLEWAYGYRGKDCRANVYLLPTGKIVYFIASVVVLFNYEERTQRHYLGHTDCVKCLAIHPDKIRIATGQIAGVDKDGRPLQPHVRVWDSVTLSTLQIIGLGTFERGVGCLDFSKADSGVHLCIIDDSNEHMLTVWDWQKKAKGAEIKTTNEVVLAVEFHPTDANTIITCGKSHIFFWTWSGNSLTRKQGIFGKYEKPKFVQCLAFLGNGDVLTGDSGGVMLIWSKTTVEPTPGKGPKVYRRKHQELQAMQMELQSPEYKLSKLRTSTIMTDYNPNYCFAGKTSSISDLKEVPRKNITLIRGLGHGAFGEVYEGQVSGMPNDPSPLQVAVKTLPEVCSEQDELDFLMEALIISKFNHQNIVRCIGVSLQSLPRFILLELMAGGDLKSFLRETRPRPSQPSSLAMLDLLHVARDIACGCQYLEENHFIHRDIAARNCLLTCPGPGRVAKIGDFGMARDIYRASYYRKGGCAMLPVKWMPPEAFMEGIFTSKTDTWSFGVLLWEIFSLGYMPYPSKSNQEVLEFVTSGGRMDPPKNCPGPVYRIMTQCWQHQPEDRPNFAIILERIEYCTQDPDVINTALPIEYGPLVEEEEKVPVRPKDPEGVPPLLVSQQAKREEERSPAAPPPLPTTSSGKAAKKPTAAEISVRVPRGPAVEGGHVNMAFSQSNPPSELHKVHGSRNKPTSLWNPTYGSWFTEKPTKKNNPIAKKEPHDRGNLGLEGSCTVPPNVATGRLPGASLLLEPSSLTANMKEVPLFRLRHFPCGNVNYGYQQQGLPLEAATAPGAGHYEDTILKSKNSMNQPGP
- PROTOCOL TEXT: Western-blot half degradation concentration (DC50) of ALK protein in H3122 cells
- Assay type: cell-based
- EXPERIMENTAL SETUP: 24 h drug treatment, read-out: DC50 (nM)/ H3122 cell line

>  <COMPOUND>
COc1cc(N2CCC(NC(=O)CCSc3cccc4c3C(=O)N(C3CCC(=O)NC3=O)C4=O)CC2)ccc1Nc1ncc(Cl)c(Nc2ccccc2P(C)(C)=O)n1 (stereo not drawn) [SIAIS164138]

>  <TESTED TARGET>
ALK protein (Homo sapiens)

>  <DC50, nM>
100

$$$$
>  <COMPOUND>
COc1cc(N2CCC(NC(=O)CCCSc3cccc4c3C(=O)N(C3CCC(=O)NC3=O)C4=O)CC2)ccc1Nc1ncc(Cl)c(Nc2ccccc2P(C)(C)=O)n1 (stereo not drawn) [SIAIS164139]

>  <TESTED TARGET>
ALK protein (Homo sapiens)

>  <DC50, nM>
500

$$$$
>  <COMPOUND>
COc1cc(N2CCC(NC(=O)CCCCCSc3cccc4c3C(=O)N(C3CCC(=O)NC3=O)C4=O)CC2)ccc1Nc1ncc(Cl)c(Nc2ccccc2P(C)(C)=O)n1 (stereo not drawn) [SIAIS164141]

>  <TESTED TARGET>
ALK protein (Homo sapiens)

>  <DC50, nM>
50

$$$$
>  <COMPOUND>
COc1cc(N2CCC(NC(=O)CCCCCCSc3cccc4c3C(=O)N(C3CCC(=O)NC3=O)C4=O)CC2)ccc1Nc1ncc(Cl)c(Nc2ccccc2P(C)(C)=O)n1 (stereo not drawn) [SIAIS164142]

>  <TESTED TARGET>
ALK protein (Homo sapiens)

>  <DC50, nM>
50

$$$$
>  <COMPOUND>
COc1cc(N2CCC(N3CCN(C(=O)CCCCCSc4cccc5c4C(=O)N(C4CCC(=O)NC4=O)C5=O)CC3)CC2)ccc1Nc1ncc(Cl)c(Nc2ccccc2P(C)(C)=O)n1 (stereo not drawn) [SIAIS164065]

>  <TESTED TARGET>
ALK protein (Homo sapiens)

>  <DC50, nM>
173

$$$$
>  <COMPOUND>
COc1cc(N2CCN(C(=O)CCSc3cccc4c3C(=O)N(C3CCC(=O)NC3=O)C4=O)CC2)ccc1Nc1ncc(Cl)c(Nc2ccccc2P(C)(C)=O)n1 (stereo not drawn) [SIAIS1197115]

>  <TESTED TARGET>
ALK protein (Homo sapiens)

>  <DC50, nM>
500

$$$$
